System: morningglory
protocol: Test A postemergence
Type: in vivo, Ipomoea spp.
experimental parameters: Postemergence, 1000 g ai/ha; visual rating after approx. 10 days, 0 to 100 scale (0 no effect, 100 complete control)
Item-by-item account of Morningglory plant response rating
API doc: respond with a numeric literal and nothing else, no unit.

C#CCNC(=O)c1cc(CC)n(Cc2cccc(OC(F)(F)F)c2)n1
70
CCc1cc(C(=O)NC2CC2)nn1Cc1cccc(OC(F)(F)F)c1
100
CCc1cc(C(=O)N(C)CC)nn1Cc1cccc(C(F)(F)F)c1
60

With those in mind, consider the next compound.
get_value(item= O=C(NCC(F)(F)F)c1cc(C2CC2)n(Cc2cccc(OC(F)(F)F)c2)n1 , readout=Morningglory plant response rating) returns 90

---

Test system: velvetleaf
protocol: Test C preemergence
Type: in vivo, Abutilon theophrasti
experimental parameters: preemergence, 31 g ai/ha; visual rating, scale 0 to 100 (0 no effect, 100 complete control), 13 to 15 days
Would you mind labelling by Velvetleaf plant response rating? At or over 20 is t, under is f.

Tell me whether Velvetleaf plant response rating is at least 20 here: CCCNC(=O)c1cc(OCC)n(Cc2ccnc(OC(F)F)c2)n1
t

Tell me whether Velvetleaf plant response rating is at least 20 here: CCCNC(=O)c1cc(CCF)n(Cc2ccnc(C(F)(F)F)c2)n1
f

Tell me whether Velvetleaf plant response rating is at least 20 here: CCONC(=O)c1cc(CC)n(Cc2ccnc(OC(F)F)c2)n1
t

Tell me whether Velvetleaf plant response rating is at least 20 here: O=C(NC1CC1)c1cc(CCF)n(Cc2ccnc(C(F)(F)F)c2)n1
t

Tell me whether Velvetleaf plant response rating is at least 20 here: CCNC(=O)c1cc(CCF)n(Cc2ccnc(C(F)(F)F)c2)n1
f

Tell me whether Velvetleaf plant response rating is at least 20 here: CCCc1cc(C(=O)NC2CC2)nn1Cc1cc(C(F)(F)F)nn1C
t

Tell me whether Velvetleaf plant response rating is at least 20 here: CCOc1cc(C(=O)NCC(F)(F)F)nn1Cc1ccnc(OC(F)F)c1
f

Tell me whether Velvetleaf plant response rating is at least 20 here: CCCNC(=O)c1cc(CC)n(Cc2nc(C(F)(F)F)nn2C)n1
f

Tell me whether Velvetleaf plant response rating is at least 20 here: CCc1cc(C(=O)NCC(F)(F)F)nn1Cc1cc(C(F)(F)F)nn1C
t

---

Item-by-item account of Plant response rating (scale of 0 to 100), Ryegrass, Italian
System: ryegrass, Italian
protocol: Test C preemergence
Type: in vivo, Lolium multiflorum
experimental parameters: Preemergence, 250 g ai/ha

CCONC(=O)c1cc(CC)n(Cc2cccc(OC(F)(F)F)c2)n1
95

get_value(item= CCc1cc(C(=O)NOC(C)C)nn1Cc1cccc(OC(F)(F)F)c1 , readout=Plant response rating (scale of 0 to 100), Ryegrass, Italian) returns 80

get_value(item= Cc1cc(C(=O)NCC(F)(F)F)nn1Cc1ccnc(C(F)(F)F)c1 , readout=Plant response rating (scale of 0 to 100), Ryegrass, Italian) returns 80

get_value(item= CCONC(=O)c1cc(CC)n(Cc2ccnc(OC(F)F)c2)n1 , readout=Plant response rating (scale of 0 to 100), Ryegrass, Italian) returns 95

---

System: corn
protocol: Test A preemergence
Assay type: in vivo, Zea mays
experimental parameters: preemergence, 500 g ai/ha, visual injury after approx. 10 days, 0 to 100 scale (0 no effect, 100 complete control)
From the text: […]
Item-by-item account of Corn plant response rating
API doc: respond with a numeric literal and nothing else, no unit.

Use these answered entries as a reference point.
CCc1cc(C(=O)NCC(F)(F)F)nn1Oc1cccc(C(F)(F)F)c1
0
O=C(NC1CC1)c1cc(CCCl)n(Cc2ccnc(C(F)(F)F)c2)n1
80

With those in mind, consider the next compound.
get_value(item= CCc1cc(C(=O)NC2CC2)nn1Cc1nnc(C(F)(F)F)o1 , readout=Corn plant response rating) returns 10

---

System: corn
protocol: Test C preemergence
Type: in vivo, Zea mays
experimental parameters: preemergence, 62 g ai/ha; scale 0 to 100 (0 no effect, 100 complete control), 13 to 15 days
Threshold check on Corn plant response rating: strictly below 30 is Fulfilled; on or above 30 is Not fulfilled.

Would you please look over these solved cases?
CCCc1cc(C(=O)NC2CC2)nn1Cc1ccnc(OC(F)F)c1 [Compound 205]
Not fulfilled
CCc1cc(C(=O)NC2CC2)nn1Cc1ccnc(Br)c1 [Compound 220]
Fulfilled
CCCc1cc(C(=O)NOC(C)C)nn1Cc1cc(C(F)(F)F)nn1C [Compound 203]
Not fulfilled
O=C(NC1CC1)c1cc(CCCl)n(Cc2ccnc(C(F)(F)F)c2)n1 [Compound 144]
Fulfilled

Consider the additional compound presented here.
Quick check: Corn plant response rating of CCCc1cc(C(=O)NC2CC2)nn1Cc1cc(C(F)(F)F)nn1C [Compound 202] under 30?
Not fulfilled

---

Item-by-item account of Corn plant response rating
System: corn
protocol: Test A postemergence
Assay type: in vivo, Zea mays
experimental parameters: Postemergence, 500 g ai/ha; 0 to 100 scale (0 no effect, 100 complete control)
API doc: respond with a numeric literal and nothing else, no unit.

Use these answered entries as a reference point.
O=C(NC1CC1)c1cc(I)n(Cc2cccc(C(F)(F)F)c2)n1
0
CCc1cc(C(=O)NCC(F)(F)F)nn1Cc1ccnc(SC(F)(F)F)c1
90
COCc1cc(C(=O)NC(C)C)nn1Cc1ccnc(C(F)(F)F)c1
80
CCCNC(=O)c1cc(Br)n(Cc2cccc(C(F)(F)F)c2)n1
20
CCONC(=O)c1cc(CC)n(Cc2cc(OC(F)F)nn2C)n1
60
CCc1cc(C(=O)NC2CC2)nn1Cc1cc(C(F)(F)F)no1
40
CCCCNC(=O)c1cc(CC)n(Cc2ccnc(C(F)(F)F)c2)n1
90
CCc1cc(C(=O)NCC(F)(F)F)nn1Oc1cccc(C(F)(F)F)c1 [Compound 217]
20

With those in mind, consider the next compound.
get_value(item= O=C(NC1CC1)c1cc(CCCl)n(Cc2ccnc(C(F)(F)F)c2)n1 , readout=Corn plant response rating) returns 90

---

Item-by-item account of Plant response rating, Corn
Test system: corn
protocol: Test C postemergence
Assay type: in vivo, Zea mays
experimental parameters: postemergence; 125 g ai/ha; scale 0 to 100, 0 no effect, 100 complete control
API doc: respond with a numeric literal and nothing else, no unit.

Use these answered entries as a reference point.
CCc1cc(C(=O)NCC(F)(F)F)nn1Cc1ccnc(Br)c1
10
CCc1cc(C(=O)NCC(F)(F)F)nn1Cc1cccc(OC(F)(F)F)c1
20

With those in mind, consider the next molecule.
get_value(item= CCCc1cc(C(=O)NC(C)C)nn1Cc1ccnc(C(F)(F)F)c1 , readout=Plant response rating, Corn) returns 75

---

Tested on: galium
protocol: Test C preemergence
Format: in vivo, Galium aparine
experimental parameters: preemergence, 250 g ai/ha; scale 0 to 100, 0 is no effect, 100 is complete control
Description: […]
Item-by-item account of Galium plant response rating
API doc: respond with a numeric literal and nothing else, no unit.

Use these answered entries as a reference point.
O=C(NC1CC1)c1cc(CCCl)n(Cc2ccnc(C(F)(F)F)c2)n1
100
CCNC(=O)c1cc(CC)n(Cc2cc(C(F)(F)F)nn2C)n1
100

Bench note, galium: entry CCc1cc(C(=O)NCC(F)(F)F)nn1Cc1ccnc(SC(F)(F)F)c1 , its Galium plant response rating = 80

Bench note, galium: entry CCCc1cc(C(=O)NC(C)C)nn1Cc1ccnc(C(F)(F)F)c1 , its Galium plant response rating = 95

Bench note, galium: entry CCOc1cc(C(=O)NOC(C)C)nn1Cc1ccnc(C(F)(F)F)c1 , its Galium plant response rating = 100

Bench note, galium: entry CCCNC(=O)c1cc(OCC)n(Cc2ccnc(OC(F)F)c2)n1 , its Galium plant response rating = 100

---

System: kochia
protocol: Test C postemergence
Type: in vivo, Kochia scoparia
experimental parameters: postemergence; 125 g ai/ha; scale 0 to 100, 0 no effect, 100 complete control
Item-by-item account of Plant response rating, Kochia
API doc: respond with a numeric literal and nothing else, no unit.

CCOc1cc(C(=O)NOC(C)C)nn1Cc1ccnc(C(F)(F)F)c1 [Compound 153]
85
CCCNC(=O)c1cc(CCF)n(Cc2ccnc(C(F)(F)F)c2)n1 [Compound 177]
90

get_value(item= CCCc1cc(C(=O)NCC(F)(F)F)nn1Cc1ccnc(OC(F)F)c1 [Compound 127] , readout=Plant response rating, Kochia) returns 65

---

Item-by-item account of Plant response rating, Oat, Wild
Tested on: oat, wild
protocol: Test C postemergence
Type: in vivo, Avena fatua
experimental parameters: postemergence; 125 g ai/ha; scale 0 to 100, 0 no effect, 100 complete control
API doc: respond with a numeric literal and nothing else, no unit.

Use these answered entries as a reference point.
CCc1cc(C(=O)NCC(F)(F)F)nn1Cc1cccc(OC(F)(F)F)c1 [Compound 20]
20
CCc1cc(C(=O)NCC(F)(F)F)nn1Cc1nc(C(F)(F)F)nn1C [Compound 107]
5
CCCc1cc(C(=O)NC2CC2)nn1Cc1cc(C(F)(F)F)nn1C [Compound 202]
10
CCCNC(=O)c1cc(CC)n(Cc2ccnc(C(F)(F)F)c2)n1 [Compound 75]
25
CCCNC(=O)c1cc(CC)n(Cc2cccc(OC(F)(F)F)c2)n1 [Compound 27]
15

Bench note, oat, wild: entry CCc1cc(C(=O)NCC(F)(F)F)nn1Cc1ccnc(Br)c1 [Compound 224] , its Plant response rating, Oat, Wild = 10

Bench note, oat, wild: entry CCONC(=O)c1cc(CC)n(Cc2ccnc(C(F)(F)F)c2)n1 [Compound 77] , its Plant response rating, Oat, Wild = 5

Bench note, oat, wild: entry CCONC(=O)c1cc(CC)n(Cc2ccnc(OC(F)F)c2)n1 [Compound 131] , its Plant response rating, Oat, Wild = 15
